Target: T1, His-MIF (His-tag/T7 gene 10 leader/Xpress-MIF fusion) (UniProt P14174 P14174:1-115)
T1 chain: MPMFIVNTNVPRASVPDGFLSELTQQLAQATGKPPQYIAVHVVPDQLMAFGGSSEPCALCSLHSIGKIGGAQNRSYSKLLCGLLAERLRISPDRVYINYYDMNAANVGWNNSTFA
Assay: SPR; 600 nM His-MIF
Conditions: MIF 115 aa; ATGen
MEASURED PROPERTY: binding signal (His-MIF/RNA bonds)
Report the value in His-MIF/RNA bonds with no unit label.

**Query** Name the recorded binding signal for #746 (ssRNA, 3' A20 tail for capture) RNA: GGGACGCUCACGUACGCUCAGGUGAAUUGGCACUUCUUUAUCUACGGAUCGAGUCGGAUGUCAGUGCCUGGACGUGCAGU .
**Result** 0.5

**Query** Entry to check: #714 (ssRNA, 3' A20 tail for capture) RNA: GGGACGCUCACGUACGCUCAGGUUUAUUGGUGCCGUGUAGUGGAAUAUCAGUGCCUGGACGUGCAGU
**Result** 1.01

**Query** Entry to check: #701 (ssRNA, 3' A20 tail for capture) RNA: GGGACGCUCACGUACGCUCACCGGGUUAUUGGCGCAAUAUUGGUAUCCUGUAUUGGUCUGUCAGUGCCUGGACGUGCAGU
**Result** 1.32

**Query** Entry to check: #718 (ssRNA, 3' A20 tail for capture) RNA: GGGACGCUCACGUACGCUCACUUCUUUCCCACUCACGUCUCGGUUUUAUUGGUCCAGUUUUCAGUGCCUGGACGUGCAGU
**Result** 0.75

**Query** Entry to check: #716 (ssRNA, 3' A20 tail for capture) RNA: GGGACGCUCACGUACGCUCACCUGUUUUGUCUAGGUUUAUUGGCGCUUAUUCCUGGAAUGUCAGUGCCUGGACGUGCAGU
**Result** 0.99

**Query** Entry to check: #704 (ssRNA, 3' A20 tail for capture) RNA: GGGACGCUCACGUACGCUCAUGUUCCUUUGGGUUAUUGGCUCCUUGUUGACCAGGGGAUGUCAGUGCCUGGACGUGCAGU
**Result** 0.96

**Query** Entry to check: #733 (ssRNA, 3' A20 tail for capture) RNA: GGGACGCUCACGUACGCUCACUUCCCUAGACCCUCCAGGUUACAGGCGCCGCCCGGAAUGUCAGUGCCUGGACGUGCAGU
**Result** 0.86

**Query** Entry to check: #713 (ssRNA, 3' A20 tail for capture) RNA: GGGACGCUCACGUACGCUCACAACACUCGAAGGGUUUAUUGGCCCCACCAUGGUGGAAUGUCAGUGCCUGGACGUGCAGU
**Result** 0.88

**Query** Entry to check: #708 (ssRNA, 3' A20 tail for capture) RNA: GGGACGCUCACGUACGCUCACGGUUAUUGGCGGAGGAUCUGUCAUGGCAUGCCUCGACUGUCAGUGCCUGGACGUGCAGU
**Result** 1.16

**Query** Entry to check: #727 (ssRNA, 3' A20 tail for capture) RNA: GGGACGCUCACGUACGCUCACUCAGGUGAUUGGCGCUAUUUAUCGAUCGAUAAUUGAAUGUCAGUGCCUGGACGUGCAGU
**Result** 1.05
